Data origin: ChEMBL document CHEMBL1154440

assay.text: Selectivity index, ratio of CC50 for human CEM cells to EC50 for HIV1 3B
Assay type: toxicity, cell-based, CCRF-CEM
condition.details: read-out: Ratio CC50/EC50
Simple rule here: selectivity ratio less than 200 is MET, otherwise NOT MET.

Query: Please indicate whether the reported selectivity ratio of Fc1cccc(F)c1C1SCc2nc3ccccc3n21 (configuration not stated) is strictly below 200.
Response: MET

Query: Please indicate whether the reported selectivity ratio of Cc1ccnc(N2C(=O)CSC2c2c(Br)cccc2Br)n1 (configuration not stated) is strictly below 200.
Response: NOT MET

Query: Please indicate whether the reported selectivity ratio of Cc1nc(N2C(=O)CSC2c2c(Br)cccc2Br)ccc1Br (configuration not stated) is strictly below 200.
Response: MET

Query: Please indicate whether the reported selectivity ratio of O=C1CSC(c2c(Br)cccc2Br)N1c1ncccn1 (configuration not stated) is strictly below 200.
Response: NOT MET

Query: Please indicate whether the reported selectivity ratio of Cc1cccc(N2C(=O)CSC2c2c(Br)cccc2Br)n1 (configuration not stated) is strictly below 200.
Response: NOT MET

Query: Please indicate whether the reported selectivity ratio of Cc1nc(N2C(=O)CSC2c2c(Br)cccc2Br)nc(C)c1C (configuration not stated) is strictly below 200.
Response: NOT MET

Query: Please indicate whether the reported selectivity ratio of O=C1CSC(c2c(Br)cccc2Br)N1c1cccc(C(F)(F)F)n1 (configuration not stated) is strictly below 200.
Response: MET

Query: Please indicate whether the reported selectivity ratio of O=C1CSC(c2c(Br)cccc2Br)N1c1ccccn1 (configuration not stated) is strictly below 200.
Response: MET

Query: Please indicate whether the reported selectivity ratio of O=C1CSC(c2c(Br)cccc2Br)N1Cc1cccs1 (configuration not stated) is strictly below 200.
Response: MET

Query: Please indicate whether the reported selectivity ratio of Cc1cc(N2C(=O)CSC2c2c(Br)cccc2Br)nc(C)n1 (configuration not stated) is strictly below 200.
Response: MET

Query: Please indicate whether the reported selectivity ratio of "Cc1ccnc2c1NC(=O)c1cccnc1N2C1CC1" is strictly below 200.
Response: NOT MET

----------
System: Human immunodeficiency virus 1
assay.text: Antiviral activity against HIV1 3B replication in human MT4 cells assessed as inhibition of virus-induced cytopathic effect after 5 days by tetrazolium-based colorimetric assay
Type: functional, organism-based
condition.details: Human immunodeficiency virus 1, 3B, MT4, 120 h
parameter.measured: pEC50
Units for pEC50: none; it is -log10 of a concentration expressed in mol/L.

Query: Kindly indicate its recorded pEC50. Item: O=C1CSC(c2c(Br)cccc2Br)N1Cc1ccco1 (stereo not given)
Response: 6.68

Query: Kindly indicate its recorded pEC50. Item: O=C1CSC(c2c(Br)cccc2Br)N1c1ncccn1 (stereo not given)
Response: 6.62

Query: Kindly indicate its recorded pEC50. Item: Cc1cc(N2C(=O)CSC2c2c(Br)cccc2Br)nc(C)n1 (stereo not given)
Response: 5.28

Query: Kindly indicate its recorded pEC50. Item: Cc1cccc(N2C(=O)CSC2c2c(Br)cccc2Br)n1 (stereo not given)
Response: 7.05

Query: Kindly indicate its recorded pEC50. Item: O=C1CSC(c2c(Br)cccc2Br)N1c1cccc(C(F)(F)F)n1 (stereo not given)
Response: 5.34

Query: Kindly indicate its recorded pEC50. Item: O=C1CSC(c2c(Br)cccc2Br)N1Cc1cccs1 (stereo not given)
Response: 6.24

Query: Kindly indicate its recorded pEC50. Item: O=C1CSC(c2c(Br)cccc2Br)N1Cc1ccccn1 (stereo not given)
Response: 6.08

Query: Kindly indicate its recorded pEC50. Item: O=C1CSC(c2c(Br)cccc2Br)N1c1nccs1 (stereo not given)
Response: 6.30

Query: Kindly indicate its recorded pEC50. Item: O=C1CSC(c2c(Br)cccc2Br)N1c1ccccn1 (stereo not given)
Response: 6.66

Query: Kindly indicate its recorded pEC50. Item: Cc1nc(N2C(=O)CSC2c2c(Br)cccc2Br)nc(C)c1C (stereo not given)
Response: 7.22

Query: Kindly indicate its recorded pEC50. Item: Cc1cc(C(F)(F)F)nc(N2C(=O)CSC2c2c(Br)cccc2Br)n1 (stereo not given)
Response: 6.49

Query: Kindly indicate its recorded pEC50. Item: Cc1nc(N2C(=O)CSC2c2c(Br)cccc2Br)ccc1Br (stereo not given)
Response: 5.99

Query: Kindly indicate its recorded pEC50. Item: "Cc1ccnc2c1NC(=O)c1cccnc1N2C1CC1"
Response: 7.30

Query: Kindly indicate its recorded pEC50. Item: Cc1ccnc(N2C(=O)CSC2c2c(Br)cccc2Br)n1 (stereo not given)
Response: 7.40

----------
assay.text: Cytotoxicity against human CEM cells by MTT assay
Assay type: cell-based
condition.details: CEM cells (CCRF-CEM)
Exercise: for every item that follows, state its recorded CC50.
Only the number, expressed in µM, is required.

Query: Kindly indicate its recorded CC50. Item: Cc1cc(N2C(=O)CSC2c2c(Br)cccc2Br)nc(C)n1 (centres undefined)
Response: 33.5

Query: Kindly indicate its recorded CC50. Item: O=C1CSC(c2c(Br)cccc2Br)N1Cc1cccs1 (centres undefined)
Response: 35.6

Query: Kindly indicate its recorded CC50. Item: Cc1nc(N2C(=O)CSC2c2c(Br)cccc2Br)ccc1Br (centres undefined)
Response: 98

Query: Kindly indicate its recorded CC50. Item: O=C1CSC(c2c(Br)cccc2Br)N1Cc1ccccn1 (centres undefined)
Response: 117

Query: Kindly indicate its recorded CC50. Item: O=C1CSC(c2c(Br)cccc2Br)N1c1cccc(C(F)(F)F)n1 (centres undefined)
Response: 29.8

Query: Kindly indicate its recorded CC50. Item: O=C1CSC(c2c(Br)cccc2Br)N1c1nccs1 (centres undefined)
Response: 109

Query: Kindly indicate its recorded CC50. Item: O=C1CSC(c2c(Br)cccc2Br)N1Cc1ccco1 (centres undefined)
Response: 36.6

Query: Kindly indicate its recorded CC50. Item: Cc1cccc(N2C(=O)CSC2c2c(Br)cccc2Br)n1 (centres undefined)
Response: 233

Query: Kindly indicate its recorded CC50. Item: O=C1CSC(c2c(Br)cccc2Br)N1c1ncccn1 (centres undefined)
Response: 179

Query: Kindly indicate its recorded CC50. Item: O=C1CSC(c2c(Br)cccc2Br)N1c1ccccn1 (centres undefined)
Response: 17.1

Query: Kindly indicate its recorded CC50. Item: Cc1ccnc(N2C(=O)CSC2c2c(Br)cccc2Br)n1 (centres undefined)
Response: 36.3

Query: Kindly indicate its recorded CC50. Item: Cc1cc(C(F)(F)F)nc(N2C(=O)CSC2c2c(Br)cccc2Br)n1 (centres undefined)
Response: 59.3

----------
System: Human immunodeficiency virus 1
assay.text: Antiviral activity against HIV1 3B replication in human CEM cells assessed as inhibition of virus-induced syncytium formation after 4 days
condition.details: Human immunodeficiency virus 1, 3B, CCRF-CEM, 96 h
parameter.measured: log10 EC50 (log10 of the value in µM)
Answers are given as log10 of EC50 in µM.

Query: Kindly indicate its recorded log10 EC50. Item: Cc1nc(N2C(=O)CSC2c2c(Br)cccc2Br)ccc1Br (stereo unspecified)
Response: 0.26

Query: Kindly indicate its recorded log10 EC50. Item: O=C1CSC(c2c(Br)cccc2Br)N1c1ccccn1 (stereo unspecified)
Response: -0.57

Query: Kindly indicate its recorded log10 EC50. Item: "Cc1ccnc2c1NC(=O)c1cccnc1N2C1CC1"
Response: -2.00

Query: Kindly indicate its recorded log10 EC50. Item: Cc1cc(N2C(=O)CSC2c2c(Br)cccc2Br)nc(C)n1 (stereo unspecified)
Response: 0.67

Query: Kindly indicate its recorded log10 EC50. Item: Cc1cccc(N2C(=O)CSC2c2c(Br)cccc2Br)n1 (stereo unspecified)
Response: -1.10

Query: Kindly indicate its recorded log10 EC50. Item: Cc1nc(N2C(=O)CSC2c2c(Br)cccc2Br)nc(C)c1C (stereo unspecified)
Response: -1.22

----------
measured.target: UniProt:Q72547
assay.text: Inhibition of HIV1 reverse transcriptase at 100 ug/ml after 1 hr by microtiter plate ELISA
Tick MET if inhibition is 90% or greater. Tick NOT MET if inhibition is less than 90%.

Query: // inclusive: inhibition at least 90%? input: O=C1CSC(c2c(Br)cccc2Br)N1c1ncccn1 (configuration not stated)
Response: MET

Query: // inclusive: inhibition at least 90%? input: O=C1CSC(c2c(Br)cccc2Br)N1c1cccc(C(F)(F)F)n1 (configuration not stated)
Response: NOT MET

Query: // inclusive: inhibition at least 90%? input: O=C1CSC(c2c(Br)cccc2Br)N1Cc1cccs1 (configuration not stated)
Response: NOT MET

Query: // inclusive: inhibition at least 90%? input: Cc1cc(N2C(=O)CSC2c2c(Br)cccc2Br)nc(C)n1 (configuration not stated)
Response: NOT MET

Query: // inclusive: inhibition at least 90%? input: O=C1CSC(c2c(Br)cccc2Br)N1Cc1ccccn1 (configuration not stated)
Response: MET

Query: // inclusive: inhibition at least 90%? input: O=C1CSC(c2c(Br)cccc2Br)N1c1ccccn1 (configuration not stated)
Response: NOT MET

Query: // inclusive: inhibition at least 90%? input: Cc1cc(-c2ccccc2)nc(N2C(=O)CSC2c2c(Br)cccc2Br)n1 (configuration not stated)
Response: NOT MET

Query: // inclusive: inhibition at least 90%? input: Cc1nc(N2C(=O)CSC2c2c(Br)cccc2Br)ccc1Br (configuration not stated)
Response: NOT MET

Query: // inclusive: inhibition at least 90%? input: Cc1ccnc(N2C(=O)CSC2c2c(Br)cccc2Br)n1 (configuration not stated)
Response: MET

Query: // inclusive: inhibition at least 90%? input: Cc1cc(C(F)(F)F)nc(N2C(=O)CSC2c2c(Br)cccc2Br)n1 (configuration not stated)
Response: NOT MET

Query: // inclusive: inhibition at least 90%? input: Cc1cc(C)nc(N2C(=O)CSC2c2c(Br)cccc2Br)n1 (configuration not stated)
Response: MET

Query: // inclusive: inhibition at least 90%? input: Cc1cccc(N2C(=O)CSC2c2c(Br)cccc2Br)n1 (configuration not stated)
Response: NOT MET
